Reference source for all entries: the supplement of paper PMC8728848

Reported glycan array binding signal (z-score) values for the following binders.
Biological target: Neu5Ac(a2-3)Gal(b1-3)[Fuc(a1-4)]GlcNAc
Experiment: glycan array binding signal (z-score within array); higher = stronger binding
Details: glycan notation: IUPAC condensed, linker removed
Many of the other results were omitted from the sample, so the strongest signals are more common in it than they were.
Provide a numeric answer; units are not to be included.

Look over these answered cases.
[[record]]
binder = "FimA-N3 (Actinomyces oris) (protein) MHHHHHHSSGVDLGTENLYFQSNAGLQGAQFQLYKAKNAYANTCSNEKEGAPIAINGQTTLTTDAQGAIDIKGLFISDSIDGADRDNQVNAMERCYVLVETKAPAGYVLPAGNGAATPVKVKAGEETTDN"
observed_result = 15.7

[[record]]
binder = "Pwp2 (Candida glabrata) (protein) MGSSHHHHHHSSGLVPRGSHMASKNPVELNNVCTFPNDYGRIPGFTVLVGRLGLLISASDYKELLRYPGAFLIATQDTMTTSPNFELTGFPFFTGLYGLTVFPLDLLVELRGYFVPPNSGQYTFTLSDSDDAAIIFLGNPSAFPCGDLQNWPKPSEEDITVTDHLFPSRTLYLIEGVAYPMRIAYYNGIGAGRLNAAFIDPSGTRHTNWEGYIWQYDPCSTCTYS"
observed_result = 0.549


Shift focus to the following entry.
Look up glycan array binding signal (z-score): SSR1 (Sclerotium rolfsii), A0A0M3KL30 (protein) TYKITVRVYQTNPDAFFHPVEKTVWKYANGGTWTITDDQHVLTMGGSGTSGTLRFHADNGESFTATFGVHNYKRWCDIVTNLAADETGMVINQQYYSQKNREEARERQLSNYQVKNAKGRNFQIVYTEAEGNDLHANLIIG
-0.341
